Below, each of the compounds is paired with its reported TC value.
- Species: Rattus norvegicus
- assay-comment: Open TG-GATES - Regimen: Daily Repeat
- Assay type: toxicity, organism-based, Sprague-Dawley
- Set-up: regimen Daily Repeat, gender Male, age 6 weeks
- test-settings: in vivo, po, 1000 mg/kg, […], tissue Plasma, route gavage, dose level High, time 14 day
Record the value in mg/dL, omitting the unit from your answer.

In the examples that follow, each entry is paired with its recorded TC.
[[record]]
compound = "CCOC(=O)CCC(=O)O[C@H]1[C@H](O[C@@H]2[C@@H](C)[C@H](O[C@H]3C[C@@](C)(OC)[C@@H](O)[C@H](C)O3)[C@@H](C)C(=O)O[C@H](CC)[C@@](C)(O)[C@H](O)[C@@H](C)C(=O)[C@H](C)C[C@@]2(C)O)O[C@H](C)C[C@@H]1N(C)C [ERYTHROMYCIN ETHYLSUCCINATE]"
recorded_metric = "TC"
recorded_number = 88.8

[[record]]
compound = "CC(C)OC(=O)C(C)(C)Oc1ccc(C(=O)c2ccc(Cl)cc2)cc1 [FENOFIBRATE]"
recorded_metric = "TC"
recorded_number = 50.6


May I ask what TC has been recorded for COC1=CC(=O)C[C@@H](C)[C@]12Oc1c(Cl)c(OC)cc(OC)c1C2=O ?
81.4
